- assaySummary: qHTS of pediatric cancer cell lines to identify multiple opportunities for drug repurposing: Primary screen for TC32 cells (AID 1347089); further: nearly all actives have a fitted effect of over 60% in size
- conditionsUsed: TC32 Ewing sarcoma viability, CellTiter-Glo luminescence, 48 h; series mostly up to 45.8 µM
Records with an inconclusive call do not appear. Active and inactive are the calls of the source. The call rests on the fitted dose curve; in most records, active means well fitted cell-killing curve with a large enough effect; inconclusive means small, poorly fitted or top-dose-only effect; inactive means flat fitted curve, though single readings scatter.
Possible outcomes: active, inactive

- compound: "CC[C@@H]([C@H](C)O)n1ncn(-c2ccc(N3CCN(c4ccc(OCC5CO[C@@](Cn6cncn6)(c6ccc(F)cc6F)C5)cc4)CC3)cc2)c1=O (some centres undefined)"
  assignedLabel: "inactive"
- compound: "CN1C(=O)C[C@H](C(=O)N[C@@H](Cc2cnc[nH]2)C(=O)N2CCC[C@@H]2C(N)=O)NC1=O"
  assignedLabel: "inactive"
- compound: "CC(C)(F)C[C@H](N[C@@H](c1ccc(-c2ccc(S(C)(=O)=O)cc2)cc1)C(F)(F)F)C(=O)NC1(C#N)CC1"
  assignedLabel: "inactive"
- compound: "O=C(CO)N1CCC(c2[nH]nc(-c3ccc(Cl)cc3)c2-c2ccncn2)CC1"
  assignedLabel: "inactive"
- compound: "COc1ccc(-c2oc3c(CC=C(C)C)c(O)cc(O)c3c(=O)c2O)cc1"
  assignedLabel: "inactive"
- compound: "CC1=C(C(=O)Nc2cc3cn[nH]c3cc2F)C(c2ccc(C(F)(F)F)cc2)CC(=O)N1 (centres undefined)"
  assignedLabel: "inactive"
- compound: "COc1ccc(-c2cc3nccn3c(Nc3ncccc3C(N)=O)n2)cc1OC"
  assignedLabel: "inactive"
- compound: "Cc1nn(Cc2ccccc2Cl)c(C)c1CN(C)CC(O)COc1ccc(Cl)cc1 (centres undefined)"
  assignedLabel: "inactive"
- compound: "C[C@]12C=CC(=O)C=C1CC[C@@H]1[C@@H]2[C@@H](O)C[C@@]2(C)[C@@H]1CC[C@]2(O)C(=O)CO"
  assignedLabel: "inactive"
- compound: "NC(N)=Nc1nc(CSCCC(N)=NS(N)(=O)=O)cs1"
  assignedLabel: "inactive"
- compound: "O=C(O)Cc1cccc(OCCCN(Cc2cccc(C(F)(F)F)c2Cl)CC(c2ccccc2)c2ccccc2)c1"
  assignedLabel: "inactive"
- compound: "N[C@@H](CC(=O)N1CCn2c(nnc2C(F)(F)F)C1)Cc1cc(F)c(F)cc1F"
  assignedLabel: "inactive"
- compound: "COc1ccc(Cn2ccc3ccc(C(=O)NO)cc32)cc1"
  assignedLabel: "inactive"
- compound: "C=C1c2cccc(O)c2C(O)=C2C(=O)[C@@]3(O)C(O)=C(C(N)=O)C(=O)[C@@H](N(C)C)[C@@H]3[C@@H](O)[C@H]12"
  assignedLabel: "inactive"
- compound: "COC(=O)N1CCN(Cc2cccc(NC(=O)Nc3ccc(C)nc3)c2F)CC1"
  assignedLabel: "inactive"
- compound: "COc1ccc(C=CC(=O)Nc2ccccc2C(=O)O)cc1OC"
  assignedLabel: "inactive"
- compound: "CCOC(=O)[C@H](CCc1ccccc1)N[C@@H](C)C(=O)N1CCCC1C(=O)O (some centres undefined)"
  assignedLabel: "inactive"
- compound: "COC1CCC(C(=O)c2ccc3nc4c(cc3c2)CCCO4)CC1 (centres undefined)"
  assignedLabel: "inactive"
- compound: "C[C@@H](NC(=O)c1ncnc(N)c1Cl)c1ncc(C(=O)Nc2cc(C(F)(F)F)c(Cl)cn2)s1"
  assignedLabel: "inactive"
- compound: "COc1c(C)cnc(Cn2cnc3c(Cl)nc(N)nc32)c1C"
  assignedLabel: "active"
- compound: "CCN1CCN(c2ccc(Nc3cc(N(C)C(=O)Nc4c(Cl)c(OC)cc(OC)c4Cl)ncn3)cc2)CC1"
  assignedLabel: "inactive"
- compound: "N#Cc1ccc(Oc2ccc3c(c2)COB3O)cc1"
  assignedLabel: "inactive"
- compound: "OCCn1cc(-c2ccc3c(c2)CCC3=NO)c(-c2ccncc2)n1"
  assignedLabel: "inactive"
- compound: "CC(C)[C@H](O)C(=O)N[C@@H](C)C(=O)N[C@@H]1C(=O)N(C)CCc2ccccc21"
  assignedLabel: "inactive"
- compound: "CC(NCCc1ccc(O)cc1)C(O)c1ccc(O)cc1 (centres undefined)"
  assignedLabel: "inactive"
- compound: "COc1nccc(-c2c(-c3ccc(F)cc3)ncn2C2CCC(O)CC2)n1 (centres undefined)"
  assignedLabel: "inactive"
- compound: "C[C@@]1(C(=O)Nc2ccc(F)nc2)CCCN1c1nc(Nc2cc(C3CC3)[nH]n2)c2cccn2n1"
  assignedLabel: "active"
- compound: "CCCCn1c(=O)n(Cc2ccccc2F)c(=O)c2[nH]c(Cc3ccc(NC(C)=O)cc3)nc21"
  assignedLabel: "inactive"
- compound: "CN(C)CCOc1ccc(-c2nc(-c3ccc4c(c3)CCC4=NO)c(-c3ccncc3)[nH]2)cc1"
  assignedLabel: "inactive"
- compound: "Nc1ncnc2c1c(-c1cccc(OCc3ccccc3)c1)cn2C1CC(CN2CCC2)C1 (centres undefined)"
  assignedLabel: "active"
- compound: "O=C(NC[C@H](O)CO)c1ccncc1Nc1ccc(I)cc1F"
  assignedLabel: "inactive"
- compound: "C[C@@H]1[C@H](C)CC[C@]2(C(=O)O)CC[C@]3(C)C(=CC[C@@H]4[C@@]5(C)CC[C@H](O)C(C)(C)[C@H]5CC[C@]43C)[C@@H]12"
  assignedLabel: "active"
- compound: "Cc1cc2c(cc1C1(c3ccc(C(=O)O)cn3)CC1)C(C)(C)CCC2(C)C"
  assignedLabel: "inactive"
- compound: "CCC(=C(c1ccc(O)cc1)c1ccc(OCCNC)cc1)c1ccccc1"
  assignedLabel: "inactive"
- compound: "COc1cc2ncnc(Nc3cc(Br)c(O)c(Br)c3)c2cc1OC"
  assignedLabel: "inactive"
- compound: "Cc1cnc(-c2cc(N3CCN(C(=O)CCS(C)(=O)=O)CC3)ncc2Cl)c(C)c1"
  assignedLabel: "inactive"
- compound: "CC(C)(C)c1[nH]cnc1C=c1[nH]c(=O)c(=Cc2ccccc2)[nH]c1=O"
  assignedLabel: "active"
- compound: "Clc1ccc(COC(Cn2ccnc2)c2ccc(Cl)cc2Cl)c(Cl)c1 (centres undefined)"
  assignedLabel: "inactive"
- compound: "CN(C)CCCNC(=O)c1ccc(-c2cc(O)c3ncccc3c2)cc1"
  assignedLabel: "inactive"
